Target: F508delCFTR (Homo sapiens, UniProt P13569, DEL508-508)
Construct: expressed in transfected cells; host or cells: CFBE41o- human lung derived epithelial cell line, doxycycline-induced expression
Sequence (P13569 with tags, fused parts or gaps DEL508-508): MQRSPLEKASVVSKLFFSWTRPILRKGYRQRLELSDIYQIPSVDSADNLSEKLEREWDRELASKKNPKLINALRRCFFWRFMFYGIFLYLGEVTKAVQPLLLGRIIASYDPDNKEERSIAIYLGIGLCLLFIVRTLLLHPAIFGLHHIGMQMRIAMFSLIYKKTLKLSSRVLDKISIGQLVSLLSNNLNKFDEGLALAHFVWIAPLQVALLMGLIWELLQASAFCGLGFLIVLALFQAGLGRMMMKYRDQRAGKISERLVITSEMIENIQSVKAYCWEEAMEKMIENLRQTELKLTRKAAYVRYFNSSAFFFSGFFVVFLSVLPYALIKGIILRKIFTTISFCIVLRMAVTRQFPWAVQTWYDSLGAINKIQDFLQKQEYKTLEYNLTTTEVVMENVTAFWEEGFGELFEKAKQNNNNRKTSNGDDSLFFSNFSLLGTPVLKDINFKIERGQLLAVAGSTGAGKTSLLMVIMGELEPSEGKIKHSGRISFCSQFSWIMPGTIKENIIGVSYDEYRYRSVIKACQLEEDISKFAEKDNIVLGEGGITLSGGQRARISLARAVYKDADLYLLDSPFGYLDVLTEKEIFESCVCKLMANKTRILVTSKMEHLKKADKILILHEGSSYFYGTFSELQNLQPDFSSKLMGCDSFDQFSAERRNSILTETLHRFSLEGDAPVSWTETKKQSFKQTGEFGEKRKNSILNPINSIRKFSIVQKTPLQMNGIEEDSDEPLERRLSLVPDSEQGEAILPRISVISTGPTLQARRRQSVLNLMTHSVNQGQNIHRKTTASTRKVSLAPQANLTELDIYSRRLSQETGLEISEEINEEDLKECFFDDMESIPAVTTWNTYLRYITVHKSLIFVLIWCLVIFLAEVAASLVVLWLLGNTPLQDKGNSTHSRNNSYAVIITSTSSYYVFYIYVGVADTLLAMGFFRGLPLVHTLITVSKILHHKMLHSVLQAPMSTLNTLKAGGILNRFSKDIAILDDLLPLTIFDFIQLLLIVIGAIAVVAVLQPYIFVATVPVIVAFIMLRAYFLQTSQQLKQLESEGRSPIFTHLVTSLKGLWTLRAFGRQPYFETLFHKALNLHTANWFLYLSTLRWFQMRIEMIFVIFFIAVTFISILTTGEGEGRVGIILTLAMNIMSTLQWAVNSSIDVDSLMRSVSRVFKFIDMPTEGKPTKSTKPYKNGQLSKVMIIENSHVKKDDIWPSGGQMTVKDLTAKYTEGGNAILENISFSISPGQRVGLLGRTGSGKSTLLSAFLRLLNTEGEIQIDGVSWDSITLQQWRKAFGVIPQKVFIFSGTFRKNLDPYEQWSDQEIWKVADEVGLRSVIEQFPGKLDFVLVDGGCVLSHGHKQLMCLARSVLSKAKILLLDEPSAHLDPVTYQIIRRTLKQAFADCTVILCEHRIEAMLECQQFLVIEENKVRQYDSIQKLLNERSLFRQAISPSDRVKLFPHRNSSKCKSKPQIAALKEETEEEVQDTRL
Assay: Cell Surface Expression-Horse Radish Peroxidase (CSE-HRP) assay in CFBE41o-F508delCFTR-HRP cells
Assay type: cell-based
Details: with co-corrector 2 μM; normalized to on-plate positive control
hey, just use Satisfied if measured Maximum % activity (with co-corrector) is less than 600%, otherwise Not satisfied

| COMPOUND | CLASS_ASSIGNMENT |
| --- | --- |
| CCOc1ccc(C)cc1[C@]1(C(=O)NS(=O)(=O)c2cccc3nc(C)ccc23)CCCO1 [Example 1] | Satisfied |
| CCc1ccc(Oc2cccnc2OC)c([C@]2(C(=O)NS(=O)(=O)c3cccc4nc(C)ccc34)CCCO2)c1 [Example 24] | Satisfied |
| COc1ccc(C)cc1[C@@]1(C(=O)NS(=O)(=O)c2cccc3nc(C)ccc23)CC2(CC2)CO1 [Example 15] | Not satisfied |
| CCc1ccc(Oc2cccnc2OC(F)F)c([C@]2(C(=O)NS(=O)(=O)c3cccc4nc(C)ccc34)CCCO2)c1 [Example 26] | Not satisfied |
| COc1ccc(C)cc1[C@@]1(C(=O)NS(=O)(=O)c2cccc3nc(C)ccc23)C[C@@H](C)CO1 [Example 19] | Not satisfied |
| COc1ccc(C)cc1[C@]1(C(=O)NS(=O)(=O)c2cccc3nc(C)ccc23)C[C@H](c2ccccc2)CO1 [Example 37] | Satisfied |
